Below, each entry is listed alongside its reported pIC50.
# testTarget: human Y4 receptor (human, UniProt P50391 1-375)
# Sequence (P50391 whole entry): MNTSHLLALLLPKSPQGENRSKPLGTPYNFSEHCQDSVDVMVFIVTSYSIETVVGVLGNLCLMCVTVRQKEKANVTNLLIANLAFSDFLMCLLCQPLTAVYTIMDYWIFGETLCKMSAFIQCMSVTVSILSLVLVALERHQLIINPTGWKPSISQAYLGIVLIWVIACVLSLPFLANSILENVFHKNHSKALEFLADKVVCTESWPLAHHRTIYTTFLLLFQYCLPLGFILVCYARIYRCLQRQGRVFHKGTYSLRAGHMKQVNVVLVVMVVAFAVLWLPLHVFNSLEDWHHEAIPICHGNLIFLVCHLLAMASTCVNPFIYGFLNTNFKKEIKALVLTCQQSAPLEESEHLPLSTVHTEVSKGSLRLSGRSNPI
# experiment: 125I-PP displacement
# pIC50 is unitless: minus log10 of the molar concentration; print number only

{"columns": ["binder", "experimentalReadout", "value"],
 "data": [
  ["GAPLEPTYPGDNATPEQLAKYAAELRRYINKLTRPRY [4060207]", "pIC50", 10.05],
  ["PAPLKPKAPGDNATPEQLAKYAAELRRYINKLTRPRY [4059862]", "pIC50", 10.15],
  ["HAPLKPTYPGDNATPEQLAKYAAELRRYINKLTRPRY [4059863]", "pIC50", 10.17]
]}

Now consider a different binder.
What does the data say about its pIC50? Entry: PAPLKPTYPGDNATPEQLAKYAAELRRYINKLTRPRY [4059864] 10.15
